- Tested on: Mycobacterium tuberculosis
- assay-protocol: Antimycobacterial activity against Mycobacterium tuberculosis H37Rv by twofold dilution method
- Assay type: functional, organism-based
Below, each of the compounds is paired with its reported IC90 value.
parameter: IC90

> print(dat)
                               smiles.input  assay.result
1      COc1ccc(CNc2cc(-c3ccco3)nc(Cl)n2)cc1   > 100 µg/mL
2      COc1ccc(COc2ncnc(-c3ccco3)c2NC=O)cc1   > 100 µg/mL
3  COc1ccc(COc2ncnc(-c3ccco3)c2[N+](=O)[O-])cc1    > 50 µg/mL
4      COc1ccc(COc2cc(-c3ccco3)nc(Cl)n2)cc1   > 100 µg/mL
5   COc1ccc(CNc2nc(F)nc(-c3ccco3)c2NC=O)cc1   < 0.2 µg/mL
6   COc1ccc(CN(C)c2ncnc(-c3ccco3)c2NC=O)cc1   > 100 µg/mL
7         COc1ccc(COc2ncnc(-c3ccco3)c2N)cc1   > 100 µg/mL
8     COc1ccc(CNc2ncnc(-c3ccco3)c2N(C)C)cc1   > 100 µg/mL
9          COc1ccc(COc2cc(-c3ccco3)ncn2)cc1   > 100 µg/mL
